Give pIC50 for every item shown.
# System: mouse lung cancer (LLC1)
# RUN DESCRIPTION: MTT assay LLC1
# Format: cell-based
# TEST CONTEXT: LLC1, 24 h
Please report pIC50 as the negative decimal logarithm of the molar concentration, giving only the number.

Please give the documented pIC50 of CCCSc1ccccc1C(=O)[O][Ag].CCCSc1ccccc1C(=O)[O][Ag] [C3, [Ag2(S-propyl-thiosal)2]]
4.38

Please give the documented pIC50 of CCSc1ccccc1C(=O)[O][Ag].CCSc1ccccc1C(=O)[O][Ag] [C2, [Ag2(S-ethyl-thiosal)2]]
4.74

Please give the documented pIC50 of [NH2][Pt]([NH2])([Cl])[Cl] [CDDP, cisplatin, reference compound]
4.66

====

Give IC50 for every item shown.
# System: mouse colon cancer (CT26)
# RUN DESCRIPTION: MTT assay CT26
# Type: cell-based
# TEST CONTEXT: CT26, 48 h
# Protocol: Mouse breast cancer (4T1), human breast cancer (MDA-MB-468), mouse colon cancer (CT26), human colon cancer (HCT-116), mouse lung cancer (LLC1), human lung cancer (A549), mouse mesenchymal stem cells (mMSC), and human fibroblast cell lines (MRC-5) were used in this study and were consistently cultured in complete Dulbecco’s Modified Eagle Medium (DMEM) (Sigma-Aldrich, St. Louis, MO, USA) in incubator (5% CO2) under standard conditions. […]
Please give a number only; it is taken to be in µM.

Please give the documented IC50 of `CCSc1ccccc1C(=O)O`
465

Please give the documented IC50 of `CCCCSc1ccccc1C(=O)O`
368

====

# Test system: human breast cancer (MDA-MB-468)
# RUN DESCRIPTION: MTT assay MDA-MB-468
# Format: cell-based
# TEST CONTEXT: MDA-MB-468, 24 h
OUTCOME MEASURE: IC50 (µM)
Please give a number only; it is taken to be in µM.

Please give the documented IC50 of [NH2][Pt]([NH2])([Cl])[Cl] [CDDP, cisplatin, reference compound]
4.06

Please give the documented IC50 of CCSc1ccccc1C(=O)[O][Ag].CCSc1ccccc1C(=O)[O][Ag] [C2, [Ag2(S-ethyl-thiosal)2]]
8.67

Please give the documented IC50 of CCCSc1ccccc1C(=O)[O][Ag].CCCSc1ccccc1C(=O)[O][Ag] [C3, [Ag2(S-propyl-thiosal)2]]
15.5
